Source listed as patent US20240425593A1.

Molecular target: T1, human PD-1-hFc (human, UniProt Q15116 25-170)
T1 construct: extracellular domain; Extracellular domain of human PD-1 fused to an hFc tag, made in house; not shown: hFc tag
T1 sequence (Q15116 25-170): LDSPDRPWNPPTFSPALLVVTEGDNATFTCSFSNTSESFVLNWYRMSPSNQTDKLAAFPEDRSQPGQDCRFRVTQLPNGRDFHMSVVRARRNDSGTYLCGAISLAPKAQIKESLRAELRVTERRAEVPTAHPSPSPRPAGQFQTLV
Experiment: competitive ELISA, coated PD-1-hFc, competitor PDL2-mFc
Each item that follows carries a reported IC50.
Give the value, in units of nM, as a plain number.

Examples with their reported IC50 follow.
{"columns": ["BINDER", "UNIT_DESCRIPTOR", "VALUE_MEASURED"],
 "data": [
  ["chimeric antibody 91D5-CH (antibody, human IgG4 S228P, kappa, V domains shown, Murine 91D5 variable regions fused to the IgG4 (S228P) heavy chain constant region and the human kappa constant region) VH: EVQLQQSGPELVKPGASVKISCRASGYTFTDYYMNWVKESHGKSLEWIGEINPKYGDTTYNQKFKDKATLTVDKSSSTASVELRSLTSEDSAVYYCAKGIRLFDSWGQGTTVTVSS VL: DIQLTQSPASLSASVGETVTITCRPSGNVHNYFAWYQQKQGKSPQLLVYNAKTLAEGVPSRFSGSGSGTQYSLKINSLQPEDFGTYYCHHYYTAPFTFGSGTKLEIKR", "nM", 1.08],
  ["humanized antibody 29C6-HZ1 (antibody, human IgG4 S228P, kappa, V domains shown) VH: QVQLVQSGAEVKKPGASVKVSCKTSGYTFTEYTIYWVRQAPGQGLEWIGGINPKNGATLYNQKFQGRVTLTVDKSTSTAYMELRSLRSDDTAVYYCVRDYHGNSHDSMDYWGQGTLVTVSS VL: EIVLTQSPATLSLSPGERATLSCSASSSVSYMHWFQQKPGQAPRLWIYYTSNLASGVPARFSGSGSGTDYTLTISSLEPEDFAVYYCQQRSDYPPTFGGGTKVEIKR", "nM", 3.63],
  ["humanized antibody 91D5-HZ1 (antibody, human IgG4 S228P, kappa, V domains shown) VH: EVQLVQSGAEVKKPGASVKVSCKASGYTFTDYYMNWVREAPGQGLEWMGEINPKYGDTTYAQKLQGRVTLTVDKSTSTAYMELSSLRSDDTAVYYCAKGIRLFDSWGQGTLVTVSS VL: DIQLTQSPSSLSASVGDRVTITCRPSGNVHNYFAWYQQKPGKSPKLLVYNAKTLAEGVPSRFSGSGSGTDYTLTISSLQPEDFATYYCHHYYTAPFTFGGGTKVEIKR", "nM", 1.25]
]}

Could you now consider this next binder?
Short answer for humanized antibody 29C6-HZ2 (antibody, human IgG4 S228P, kappa, V domains shown) VH: QVQLVQSGVEVKKPGASVKVSCKTSGYTFTEYTIYWVRQAPGQGLEWIGGINPKNGATLYNQKFKVRATLTVDKSTTTAYMELKSLQFDDTAVYYCVRDYHGNSHDSMDYWGQGTTVTVSS VL: EIVLTQSPATLSLSPGERATLSCSASSSVSYMHWFQQKPGQAPRLLIYYTSNLASGVPARFSGSGSGTDYTLTISSLEPEDFAVYYCQQRSDYPPTFGGGTKVEIKR : IC50 was 0.95
